# target under test: PDE5 (Homo sapiens, UniProt O76074)
# test method notes: Phosphodiesterase 5 enzyme activity assay
# Assay type: biochemical
# measurement context: 10 μM compound
experimental readout: PDE5 activity, increase (↑, enhancement)
// unit must come after the numeric part

Observe how each entry below is paired with its result.
compound	result
CC(=O)c1c(C)[nH]c(C(=O)Nc2nccs2)c1C [Compound 5b]	15%
CCOC(=O)c1c(C)[nH]c(C(=O)Nc2nccs2)c1C [Compound 5a]	222%
COc1ccc(N/C(C)=C\C(=O)Nc2nccs2)cc1 [Compound 23b]	15%

Returns the measured PDE5 activity, increase (↑, enhancement) for the input compound. Input: CC(=O)C(C(C)=O)C(=O)Nc1nccs1 [Compound 17] 371%

Returns the measured PDE5 activity, increase (↑, enhancement) for the input compound. Input: CCOC(=O)CCC(=O)Nc1nccs1 [Compound 11] 3.5%
